assay: blockers of mitochondrial fusion, WT vs mutant – cell-based, chemical genetic, wild-type and mutant, confirmation (AID 1361); conditions: Cell-based mitochondrial fusion phenotype, imaging, WT cells
Activity calls are given as the source filed them. No rule for the calls is given here.
Outcomes: TRUE for active, FALSE for inactive

compound="CC1CC(C)(C)N2C(=O)C3(Nc4ccccc4S3)c3cccc1c32 (stereo unspecified)" category_label=FALSE
compound=O=[N+]([O-])c1cccnc1N1CCC(c2cc(-c3ccc(Cl)cc3Cl)n[nH]2)CC1 category_label=TRUE
compound=S=c1[nH]nc(-c2cc3ccccc3o2)n1Cc1ccccc1 category_label=TRUE
compound=Cc1ccc(-n2cccc2/C=C2\C(=N)N3N=C(C(C)C)SC3=NC2=O)cc1 category_label=TRUE
compound="CCOC(=O)C(C)c1nc2ccccc2[nH]c1=O (stereo unspecified)" category_label=FALSE
compound=CCCc1cc(-c2nc(N)ncc2-c2ccc3c(c2)OCCCO3)c(O)cc1OC category_label=TRUE
compound=O=C(N/N=C/c1c(Cl)cccc1Cl)c1n[nH]c2c1CCCC2 category_label=FALSE
compound=O=C(c1ccc(Cl)c(Cl)c1)c1cnc(Nc2ccccc2)s1 category_label=FALSE
compound=CN1/C(=C\C(=O)Nc2cccc(Cl)c2)C(C)(C)c2ccccc21 category_label=TRUE
compound="c1csc(C(c2nnnn2C2CCCC2)N2CCCC3(CCCCC3)C2)c1 (stereo unspecified)" category_label=TRUE
compound=O=c1cc2c(nn1Cc1ccc(Cl)cc1Cl)-c1ccccc1CC2 category_label=TRUE
